Values compiled from PubChem BioAssay (Tox21).

Assay: qHTS RealTime-Glo MT Cell Viability Assay in HepG2 cells - 8 hour (AID 1224873); also: % is scaled to controls: 0 for no effect and ±100 for the full control effect; nearly all actives have a fitted effect of over 55% in size
Conditions: RealTime-Glo luminescence; series mostly up to 76.8 µM
Inconclusive results are not listed. Calls of active or inactive are those of the source. Calls follow the shape of the dose curve; as a rule, active = well fitted cell-killing curve with a large enough effect in the repeat runs; inconclusive = weak or mixed curves; inactive = flat fitted curve, though single readings scatter.
property: viability change, negative = cytotoxic

{"compound": "C[C@@H]1CC[C@@]2(OC1)O[C@H]1C[C@H]3[C@@H]4CC[C@H]5C[C@@H](O)CC[C@]5(C)[C@H]4CC(=O)[C@]3(C)[C@H]1[C@@H]2C", "reading": "1.5% [at 6.97 µM] (inactive)"}
{"compound": "N=C(N)N1CCc2ccccc2C1", "reading": "0.945% [at 6.97 µM] (inactive)"}
{"compound": "C=C(C)C(=O)OCCCC", "reading": "inactive"}
{"compound": "N=C(N)S(=O)O", "reading": "inactive"}
{"compound": "CCCCCCCCCCCCCCCC/C=C/C1CC(=O)OC1=O (configuration not stated)", "reading": "inactive"}
{"compound": "C[Si](C)(C)O[Si](O)(O)O", "reading": "inactive"}
{"compound": "C=CCn1cc[n+](C)c1", "reading": "inactive"}
{"compound": "COC(=O)N/N=C/c1c[n+]([O-])c2ccccc2[n+]1[O-]", "reading": "inactive"}
{"compound": "CC(C)(C)c1ccc(C(=O)CCCCl)cc1", "reading": "inactive"}
{"compound": "CCCCS", "reading": "inactive"}

input: Find the recorded viability change, negative = cytotoxic belonging to `CCCCCCCOC(C)=O` and report it.
output: inactive

input: Find the recorded viability change, negative = cytotoxic belonging to `CCN1CCN(C(=O)N[C@@H](C(=O)N[C@@H]2C(=O)N3C(C(=O)O)=C(CSc4nnnn4C)CS[C@H]23)c2ccc(O)cc2)C(=O)C1=O` and report it.
output: inactive
